# targetSystem: CYP3A4 (Homo sapiens (Human))
# assayDetails: CYP3A4 inhibition assay (human liver microsomes, testosterone 6β-hydroxylation)
# measurementParameters: read-out: CYP3A4 IC50, 40 μM testosterone
Listing of entries alongside the reported log10 of IC50.
Scale type: logarithmic (base 10). Underlying IC50 unit: µM.

# compound, measurementKind, recordedMeasurement
records = [
    ("Cc1ccc(-n2nccn2)c(C(=O)N2C[C@@H](C)OC[C@H]2Cc2cc(-c3ncccn3)ccc2F)c1", "log10 of IC50", 1.45),
    ("COc1ccc(C[C@@H]2COCCN2C(=O)c2ccccc2-n2nccn2)cc1-c1cccnc1", "log10 of IC50", 0.08),
    ("Cc1ccc(C(=O)N2C[C@@H](C)OC[C@H]2Cc2cc(-n3ccnn3)ccc2F)c(-n2nccn2)c1", "log10 of IC50", 1.28),
]

Q) Give a short answer stating reported log10 of IC50 for Cc1ccc(C(=O)N2[C@H](Cc3cccc(-n4nccn4)c3)COC[C@@H]2C)c(-n2nccn2)c1 .
A) 1.15

Q) Give a short answer stating reported log10 of IC50 for CC[C@@H]1CN(C(=O)c2ccc(C)cc2-n2nccn2)[C@H](Cc2cccc(-n3nccn3)c2)CO1 .
A) 0.98

Q) Give a short answer stating reported log10 of IC50 for O=C(c1cc(Cl)ccc1-n1nccn1)N1CCOC[C@H]1Cc1cccc(-n2nccn2)c1 .
A) 1.23

Q) Give a short answer stating reported log10 of IC50 for C[C@@H]1CN(C(=O)c2cccc(Cl)c2-n2nccn2)[C@H](Cc2cc(-n3nccn3)ccc2F)CO1 .
A) 1.32

Q) Give a short answer stating reported log10 of IC50 for CC[C@@H]1CN(C(=O)c2ccccc2-n2nccn2)[C@H](Cc2cccc(-n3nccn3)c2)CO1 .
A) 0.96

Q) Give a short answer stating reported log10 of IC50 for C[C@@H]1CN(C(=O)c2ccc(Cl)cc2-n2nccn2)[C@H](Cc2cc(-c3ncccn3)ccc2F)CO1 .
A) 1.26

Q) Give a short answer stating reported log10 of IC50 for O=C(c1cc(Cl)ccc1-n1nccn1)N1CCOC[C@H]1Cc1cc(-c2ncon2)ccc1F .
A) 1.34

Q) Give a short answer stating reported log10 of IC50 for Cc1ccc(-n2nccn2)c(C(=O)N2CCOC[C@H]2Cc2cc(-n3nccn3)ccc2Cl)c1 .
A) 1.34

Q) Give a short answer stating reported log10 of IC50 for O=C(c1ccc(C(F)(F)F)cc1-n1nccn1)N1CCOC[C@H]1Cc1cccc(-c2ncon2)c1 .
A) 1.18

Q) Give a short answer stating reported log10 of IC50 for O=C(c1ccccc1-n1nccn1)N1CCCC[C@H]1Cc1cccc(-n2nccn2)c1 .
A) 0.79

Q) Give a short answer stating reported log10 of IC50 for Cc1ccc(C(=O)N2CCO[C@@H](C)[C@H]2Cc2cccc(-n3nccn3)c2)c(-n2nccn2)c1 (single isomer, unassigned) .
A) 1.15

Q) Give a short answer stating reported log10 of IC50 for Cc1ccc(-n2nccn2)c(C(=O)N2CCOC[C@H]2Cc2cccc(-c3ccncc3)c2)c1 .
A) -0.52

Q) Give a short answer stating reported log10 of IC50 for COc1cc(C(=O)N2CCOC[C@H]2Cc2cccc(-n3nccn3)c2)c(-n2nccn2)cc1F .
A) 1.34

Q) Give a short answer stating reported log10 of IC50 for O=C(c1ccccc1-n1nccn1)N1CCOC[C@H]1Cc1cccc(-n2nccn2)c1 .
A) 1.48

Q) Give a short answer stating reported log10 of IC50 for COc1ccc(-n2nccn2)c(C(=O)N2CCOC[C@H]2Cc2cc(-n3nccn3)ccc2F)c1F .
A) 1.57

Q) Give a short answer stating reported log10 of IC50 for Cc1cccc(C(=O)N2CCOC[C@H]2Cc2cc(-n3nccn3)ccc2Cl)c1-n1nccn1 .
A) 1.26

Q) Give a short answer stating reported log10 of IC50 for C[C@@H]1CN(C(=O)c2cc(Cl)ccc2-n2nccn2)[C@H](Cc2cc(-c3ncccn3)ccc2F)CO1 .
A) 1.18

Q) Give a short answer stating reported log10 of IC50 for O=C(c1ccc(Cl)cc1-n1nccn1)N1CCOC[C@H]1Cc1cc(-n2nccn2)ccc1F .
A) 1.30

Q) Give a short answer stating reported log10 of IC50 for C[C@@H]1CN(C(=O)c2cc(Cl)ccc2-n2nccn2)[C@H](Cc2cc(-n3nccn3)ccc2F)CO1 .
A) 1.28

Q) Give a short answer stating reported log10 of IC50 for Cc1ccc(-n2nccn2)c(C(=O)N2CCOC[C@H]2Cc2cc(-n3nccn3)ccc2F)c1 .
A) 1.52

Q) Give a short answer stating reported log10 of IC50 for O=C(c1ccc(F)cc1-n1nccn1)N1CCOC[C@H]1Cc1cccc(-n2nccn2)c1 .
A) 1.56

* * *

Listing of entries alongside the reported pIC50.
# targetSystem: human orexin-1 receptor (Homo sapiens (Human))
# Sequence (O43613 whole entry): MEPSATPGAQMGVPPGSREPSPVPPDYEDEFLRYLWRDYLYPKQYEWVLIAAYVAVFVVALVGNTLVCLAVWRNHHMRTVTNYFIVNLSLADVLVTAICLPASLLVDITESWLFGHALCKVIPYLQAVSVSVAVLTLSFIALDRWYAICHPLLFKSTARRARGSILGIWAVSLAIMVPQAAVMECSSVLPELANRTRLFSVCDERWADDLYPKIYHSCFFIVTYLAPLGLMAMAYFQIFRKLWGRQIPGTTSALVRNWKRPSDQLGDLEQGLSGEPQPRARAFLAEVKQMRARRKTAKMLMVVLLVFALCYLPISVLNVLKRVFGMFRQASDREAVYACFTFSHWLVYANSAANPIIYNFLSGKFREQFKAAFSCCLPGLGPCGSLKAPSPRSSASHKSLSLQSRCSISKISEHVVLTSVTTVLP
# assayDetails: In vitro intracellular calcium measurements (FLIPR), antagonistic activity on orexin-1 receptor
# Assay type: cell-based
# measurementParameters: CHO cells expressing human orexin-1 receptor; FLIPR; 3 nM orexin-A agonist; 120 min antagonist incubation; geometric mean if determined several times; read-out: IC50 OX1
Recall that pIC50 is obtained by taking minus log10 of the concentration measured in molar.

# compound, pIC50
rows = [
    ("Cc1ccc(-n2nccn2)c(C(=O)N2CCCC[C@H]2Cc2cccc(-n3nccn3)c2)c1", 9.52),
    ("Cc1ccc(C(=O)N2CCOC[C@H]2Cc2cccc(-n3cccn3)c2)c(-n2nccn2)c1", 8.52),
    ("O=C(c1cc(Cl)ccc1-n1nccn1)N1CCOC[C@H]1Cc1cccc(-c2ncon2)c1", 8.30),
    ("Cc1cccc(C(=O)N2CCO[C@@H](C)[C@H]2Cc2cccc(-n3nccn3)c2)c1-n1nccn1 (single isomer, unassigned)", 7.54),
    ("O=C(c1ccccc1-n1nccn1)N1CCOC[C@H]1Cc1cc(-n2nccn2)ccc1Cl", 7.40),
]

Q) Give a short answer stating reported pIC50 for Cc1cc(C(=O)N2CCOC[C@H]2Cc2cc(-c3ncon3)ccc2F)c(-n2nccn2)cc1C .
A) 8.70

Q) Give a short answer stating reported pIC50 for Cc1ccc(C(=O)N2C[C@@H](C)OC[C@H]2Cc2cc(-c3ncccn3)ccc2F)c(-n2nccn2)c1 .
A) 8.40

* * *

Listing of entries alongside the reported IC50.
# targetSystem: CYP3A4 (Homo sapiens (Human))
# assayDetails: CYP3A4 inhibition assay (human liver microsomes, testosterone 6β-hydroxylation)
# measurementParameters: read-out: CYP3A4 IC50, 40 μM testosterone
The reply should be a number in µM, with the unit left off.

Observe how each entry below is paired with its result.
# smilesNotation, IC50 [µM]
measured = [
    ("Cc1cccc(C(=O)N2C[C@@H](C)OC[C@H]2Cc2cccc(-c3ncccn3)c2)c1-n1nccn1", 40),
    ("Cc1ccc(-n2nccn2)c(C(=O)N2CCOC[C@H]2Cc2cc(-n3nccn3)ccc2F)c1F", 19),
    ("COc1ccc(C[C@@H]2COCCN2C(=O)c2ccccc2-n2nccn2)cc1-c1cnccn1", 26),
    ("Cc1ccc(C(=O)N2CCOC[C@H]2Cc2cccc(-n3cccn3)c2)c(-n2nccn2)c1", 41),
    ("Cc1ccc(-n2nccn2)c(C(=O)N2CCOC[C@H]2Cc2ccc(C)c(-n3nccn3)c2)c1", 22),
]

Q) Give a short answer stating reported IC50 for Cc1ccc(C(=O)N2CCOC[C@H]2Cc2cc(-c3ncon3)ccc2F)c(-n2nccn2)c1C .
A) 36

Q) Give a short answer stating reported IC50 for COc1ccc(C[C@@H]2COCCN2C(=O)c2ccccc2-n2nccn2)cc1-c1nccs1 .
A) 3.2

* * *

# targetSystem: CYP3A4 (Homo sapiens (Human), UniProt P08684)
# Sequence (P08684 whole entry): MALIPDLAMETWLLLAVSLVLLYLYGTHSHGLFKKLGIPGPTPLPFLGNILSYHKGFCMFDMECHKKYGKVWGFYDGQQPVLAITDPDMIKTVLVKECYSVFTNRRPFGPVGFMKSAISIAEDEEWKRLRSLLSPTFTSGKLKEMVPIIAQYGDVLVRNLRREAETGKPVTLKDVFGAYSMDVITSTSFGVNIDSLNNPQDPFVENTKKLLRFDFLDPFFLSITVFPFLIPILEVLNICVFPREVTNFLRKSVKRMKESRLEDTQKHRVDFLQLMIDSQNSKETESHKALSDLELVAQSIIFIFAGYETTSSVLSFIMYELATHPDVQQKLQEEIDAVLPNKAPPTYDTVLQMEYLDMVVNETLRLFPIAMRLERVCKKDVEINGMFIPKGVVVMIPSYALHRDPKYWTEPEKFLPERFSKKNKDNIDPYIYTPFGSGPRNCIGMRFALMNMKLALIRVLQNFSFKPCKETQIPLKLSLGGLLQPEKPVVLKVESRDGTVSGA
# assayDetails: CYP3A4 inhibition assay (human liver microsomes, testosterone 6β-hydroxylation)
# measurementParameters: read-out: CYP3A4 IC50, 40 μM testosterone
Listing of entries alongside the reported IC50.

Observe how each entry below is paired with its result.
# smilesNotation, recordedMeasurement
rows = [
    ("Cc1ccc(-n2nccn2)c(C(=O)N2C[C@@H](C)OC[C@H]2Cc2cc(-n3nccn3)ccc2F)c1", "24 µM"),
    ("Cc1ccc(C[C@@H]2COCCN2C(=O)c2ccccc2-n2nccn2)cc1-n1nccn1", "36 µM"),
    ("COc1ccc(C[C@@H]2COCCN2C(=O)c2ccccc2-n2nccn2)cc1-c1ncon1", "32 µM"),
    ("COc1ccc(C[C@@H]2COCCN2C(=O)c2ccccc2-n2nccn2)cc1-c1ncccn1", "> 50 µM"),
    ("Cc1ccc(C(=O)N2C[C@@H](C)OC[C@H]2Cc2cccc(-n3nccn3)c2)c(-n2nccn2)c1", "9.7 µM"),
]

Q) Give a short answer stating reported IC50 for Cc1ccc(C(=O)N2CCOC[C@H]2Cc2cc(-n3nccn3)ccc2Cl)c(-n2nccn2)c1 .
A) 19 µM

Q) Give a short answer stating reported IC50 for COc1cc(C(=O)N2CCOC[C@H]2Cc2cc(-n3nccn3)ccc2F)c(-n2nccn2)cc1Cl .
A) 13 µM

Q) Give a short answer stating reported IC50 for Cc1ccc(C(=O)N2CCOC[C@H]2Cc2ccc(C)c(-n3nccn3)c2)c(-n2nccn2)c1 .
A) 25 µM
